Listing of entries alongside the reported nuclear beta-catenin stimulation.
- experimentSummary: stimulators of nuclear beta-catenin in C2C12, primary screen, imaging, WNT3A-conditioned medium, mouse C2C12, NPC library (AID 1117326)
- measurementContext: stimulation, at 2 µM, stronger effect = higher value
Numeric only. Scale: %

The following compounds have reported results that may help.
COc1cccc(N(C)C(=S)Oc2ccc3c(c2)CCCC3)n1 :: 0.4
O=C1Cc2cc(CCN3CCN(c4nsc5ccccc45)CC3)c(Cl)cc2N1 :: 0.6
CN(C)CCCO[C@@H]1[C@H]2OC(C)(C)O[C@H]2O[C@@H]1C(O)CO (stereo not given in full) :: -1
O=C(O)Cc1ccc(-c2ccccc2)cc1 :: 0.3
CN(C)CCCOc1nn(Cc2ccccc2)c2ccccc12 :: 0.5

Quick one: nuclear beta-catenin stimulation for `COc1ccc2c(c1)c1c3n2CCN(C)C3=NCC1` ?
0.5

Quick one: nuclear beta-catenin stimulation for `CC(=O)[C@H]1CC[C@H]2[C@@H]3C=CC4=CC(=O)CC[C@@]4(C)[C@@H]3CC[C@]12C` ?
1.5

Quick one: nuclear beta-catenin stimulation for `Nc1c[n+](N2CCOCC2)no1` ?
-0.3

Quick one: nuclear beta-catenin stimulation for `CN(CCCCCCCCCCN(C)C(=O)Oc1cccc([N+](C)(C)C)c1)C(=O)Oc1cccc([N+](C)(C)C)c1` ?
-0.7

Quick one: nuclear beta-catenin stimulation for `OCCN1CCN(CCCN2c3ccccc3C=Cc3ccccc32)CC1` ?
1.3

Quick one: nuclear beta-catenin stimulation for `NC(=O)c1cc[n+](CC2=C(C(=O)[O-])N3C(=O)[C@@H](NC(=O)Cc4cccs4)[C@H]3SC2)cc1` ?
-0.6

====

- experimentSummary: survival rescue of mitochondrial mutant cells in low glucose, primary screen, MELAS cybrids, Rieske KO mouse fibroblasts, CellTiter-Glo (AID 1508586);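 note: z relative to plate mean and SD of compound and empty wells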
- measurementContext: MELAS cybrid survival, CellTiter-Glo 48 h, stronger effect = higher value
# label = Yes if z-score >= -0.4 else No

Past entries and their recorded results:
CC[N+](CC)(CC(=O)Nc1c(C)cccc1C)Cc1ccccc1 :: No
CNS(=O)(=O)CCc1ccc2[nH]cc(C3CCN(C)CC3)c2c1 :: No
O=c1cc[nH]c(=O)[nH]1 :: Yes
C[C@H](CCC(=O)O)[C@H]1CC[C@H]2[C@@H]3CC[C@@H]4C[C@H](O)CC[C@]4(C)[C@H]3CC[C@]12C :: Yes
CCOC(=O)[C@@](C)(N)Cc1ccc(O)c(O)c1 :: No

Continue with the molecule presented below.
Determine whether this molecule has z-score no lower than -0.4: `C[N+](C)(C)CCO`
Yes

====

- experimentSummary: growth inhibition of DIPG glioma cells, dose response, cell-based, SU-DIPG-IV, MIPE4.0, CellTiter-Glo, qHTS (AID 1347063);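 note: compound exposure lasted 48 hours before the viability readout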
- measurementContext: SU-DIPG-IV viability, CellTiter-Glo ATP luminescence
Results filed as inconclusive are left out. Active and inactive are the calls of the source. The limit is not given here; nearly all actives have AC50 up to about 30 µM.
Assign a class; possible classes are active, inactive

OCc1ccccc1O[C@@H]1O[C@H](CO)[C@@H](O)[C@H](O)[C@H]1O :: inactive
CCC[C@@H]1C[C@@H](C(=O)N[C@@H]([C@H]2O[C@H](SC)[C@H](O)[C@@H](O)[C@H]2O)[C@@H](C)O)N(C)C1 :: inactive
CCOC(=O)C1=C(O)C(=O)N(Cc2ccccc2)C1 :: inactive
C[C@H]1[C@H](C)CC[C@]2(C(=O)O)CC[C@]3(C)C(=CC[C@@H]4[C@@]5(C)CC[C@H](O)C(C)(C)[C@@H]5CC[C@]43C)[C@H]12 :: active
CC(=O)O[C@]1(C(C)=O)CC[C@H]2[C@@H]3C[C@H](C)C4=CC(=O)CC[C@]4(C)[C@H]3CC[C@@]21C :: inactive

For this molecule, state the assay outcome: `COc1cc2c(c(OC)c1OC)-c1ccc(OC)c(=O)cc1[C@@H](NC(C)=O)CC2`
inactive

For this molecule, state the assay outcome: `NS(=O)(=O)c1cc(Cl)c(Cl)c(S(N)(=O)=O)c1`
inactive

For this molecule, state the assay outcome: `O=C(CCCN1CCC(O)(c2ccc(Cl)cc2)CC1)c1ccc(F)cc1`
inactive

For this molecule, state the assay outcome: `C[C@H]1O[C@@H](O[C@H]2[C@@H](O)C[C@H](O[C@H]3[C@@H](O)C[C@H](O[C@H]4CC[C@@]5(C)[C@H](CC[C@@H]6[C@@H]5C[C@@H](O)[C@]5(C)[C@@H](C7=CC(=O)OC7)CC[C@]65O)C4)O[C@@H]3C)O[C@@H]2C)C[C@H](O)[C@@H]1O`
active

====

- experimentSummary: growth inhibition of GSK3B-pretreated HCT116 cells – cell-based, CellTiter-Glo, 0.2 to 20 µM (AID 1117336)
- measurementContext: HCT116 viability after GSK3B inhibitor, at 20 µM
Active and inactive are the calls of the source.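 The calls were made as follows: active = compounds lowering colon cancer cell viability after pretreatment blocking the GSK3B kinase; inactive = the rest.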
Assign a class; possible classes are YES for active, NO for inactive

Past entries and their recorded results:
CCOc1ccc(NC(=O)CC(C)O)cc1 (stereo unspecified) :: NO
Cc1cc2c(cc1S(N)(=O)=O)S(=O)(=O)CCC2 :: NO
Nc1cccc2c1CN(C1CCC(=O)NC1=O)C2=O (stereo unspecified) :: NO
COC(=O)C(c1ccccc1Cl)N1CCc2sccc2C1 (stereo unspecified) :: NO
C#CC1(O)CC[C@H]2[C@@H]3CCC4=CCCC[C@@H]4[C@H]3CC[C@@]21C (stereo partly specified) :: YES

For this molecule, state the assay outcome: `CO[C@H]1O[C@@H]2O[C@@]3(C)CC[C@H]4[C@H](C)CC[C@@H]([C@@H]1C)[C@@]24OO3`
NO

For this molecule, state the assay outcome: `Clc1cc(Cl)c(OCC#CI)cc1Cl`
YES

For this molecule, state the assay outcome: CCCCC(CC)COc1ccc(-c2nc(-c3ccc(OC)cc3)nc(-c3ccc(OCC(CC)CCCC)cc3O)n2)c(O)c1 (stereo unspecified)
NO

For this molecule, state the assay outcome: `CS(=O)(=O)c1ccc([C@@H](O)[C@@H](CF)NC(=O)C(Cl)Cl)cc1`
NO

For this molecule, state the assay outcome: `CCOC(=O)c1c(C)n(C)c2ccc(O)cc12`
NO

For this molecule, state the assay outcome: `COc1ccccc1N1CCN(CCCCNC(=O)c2ccc(-c3ccc(C(C)=O)cc3)cc2)CC1`
YES

====

- experimentSummary: stimulators of nuclear beta-catenin in C2C12, primary screen, imaging, WNT3A-conditioned medium, mouse C2C12, NPC library (AID 1117326)
- measurementContext: stimulation, at 2 µM, stronger effect = higher value
Listing of entries alongside the reported nuclear beta-catenin stimulation.
Numeric only. Scale: %

The following compounds have reported results that may help.
CN=C(NC#N)NCCSCc1csc(N=C(N)N)n1 :: -1.8
C1COC(NC(C2CC2)C2CC2)=N1 :: -0.7

Quick one: nuclear beta-catenin stimulation for `N[C@@H](CC(=O)O)C(=O)O` ?
-0.6

Quick one: nuclear beta-catenin stimulation for `O[C@@H](CNC[C@H](O)[C@H]1CCc2cc(F)ccc2O1)[C@@H]1CCc2cc(F)ccc2O1` ?
-2.1

Quick one: nuclear beta-catenin stimulation for `CS(=O)(=O)CCNCc1ccc(-c2ccc3ncnc(Nc4ccc(OCc5cccc(F)c5)c(Cl)c4)c3c2)o1` ?
-0.2

Quick one: nuclear beta-catenin stimulation for `CCCC(=O)O[C@]1(C(=O)CO)CC[C@H]2[C@@H]3CCC4=CC(=O)CC[C@]4(C)[C@H]3[C@@H](O)C[C@@]21C` ?
1.4

Quick one: nuclear beta-catenin stimulation for `CC(=O)NC(=O)c1ccccc1O` ?
0.9

====

- experimentSummary: ovarian cancer cell viability with rucaparib, profiling panel, oncology-focused library, rucaparib conditional (AID 1508598)
- measurementContext: patient-derived ovarian cancer cells, CellTiter-Glo viability, 144 h; at 0.00488 µM; OCI-P5x cells; with rucaparib 20 µM; stronger effect = lower value; 100% = cells with rucaparib alone
quantityName: viability (%)
Numeric only. Scale: %

The following compounds have reported results that may help.
COc1c(C)c2c(c(O)c1C/C=C(\C)CCC(=O)OCCN1CCOCC1)C(=O)OC2 :: 101
CCc1ccc(CCOc2ccc(CC3SC(=O)NC3=O)cc2)nc1 (stereo not given) :: 102

Quick one: viability for `CC(C)C[C@H](NC(=O)[C@H](Cc1ccccc1)NC(=O)c1cnccn1)B(O)O` ?
102

Quick one: viability for `CCCC(CCC)C(=O)O` ?
122

Quick one: viability for `CNC(=O)c1ccccc1Sc1ccc2c(/C=C/c3ccccn3)n[nH]c2c1` ?
106

====

- experimentSummary: CellTiter-Glo luminescent readout of SW480 viability loss, NPC library primary (AID 1117343)
- measurementContext: CellTiter-Glo luminescence; at 20 µM (top of the series) unless noted
quantityName: viability decrease (inhibition) (%)
Numeric only. Scale: %

The following compounds have reported results that may help.
Cc1cc(C)c(/C=C2\C(=O)Nc3ccccc32)[nH]1 :: 48.7
Nc1ncn([C@H]2C[C@H](O)[C@@H](CO)O2)c(=O)n1 :: 53.8
CC(C)(C)NC(=O)[C@@H]1C[C@@H]2CCCC[C@H]2CN1C[C@@H](O)[C@H](Cc1ccccc1)NC(=O)[C@H](CC(N)=O)NC(=O)c1ccc2ccccc2n1 :: 92.3

Quick one: viability decrease (inhibition) for `CC(C)OC(=O)C(C(=O)OC(C)C)=C1SC=CS1` ?
6.3

Quick one: viability decrease (inhibition) for NC1[C@H]2CN(c3nc4c(cc3F)c(=O)c(C(=O)O)cn4-c3ccc(F)cc3F)C[C@@H]12 (stereo partly specified) ?
82.9

Quick one: viability decrease (inhibition) for `Cn1c(=O)c2c(ncn2CC(=O)O)n(C)c1=O` ?
0.4

Quick one: viability decrease (inhibition) for `COc1cc(O)c(C(=O)c2ccccc2)cc1S(=O)(=O)O` ?
-19.9

Quick one: viability decrease (inhibition) for `NC(=O)c1ncn([C@@H]2O[C@H](CO)[C@@H](O)[C@H]2O)c1N` ?
-88.2

The reported numbers originate from PubChem BioAssay.
